Reported pIC50 on WD repeat-containing protein 5 (Homo sapiens) for assorted compounds, compiled from publications.
Would you please state pIC50, meaning minus log10 of the concentration in mol/L, as a bare number?

Incoming: Form: Entry = Cc1c(F)ccc(C(=O)Nc2cc(-c3ccncc3)ccc2N2CCN(C)CC2)c1Cl | System = WD repeat-containing protein 5 (Homo sapiens) | pIC50 = ____
Outgoing: 6.98

Incoming: Form: Entry = Cc1c(F)ccc(C(=O)Nc2cc(C(=O)OC(C)C)ccc2N2CCN(C)CC2)c1Cl | System = WD repeat-containing protein 5 (Homo sapiens) | pIC50 = ____
Outgoing: 6.58

Incoming: Form: Entry = CN1CCN(c2ccc(-c3ccncc3)cc2NC(=O)c2ccc(F)c(N)c2)CC1 | System = WD repeat-containing protein 5 (Homo sapiens) | pIC50 = ____
Outgoing: 5.24

Incoming: Form: Entry = Cc1c(F)ccc(C(=O)Nc2cc(-c3ccccc3)ccc2N2CCN(C)CC2)c1Cl | System = WD repeat-containing protein 5 (Homo sapiens) | pIC50 = ____
Outgoing: 6.33

Incoming: Form: Entry = Cc1c(F)c(N)cc(C(=O)Nc2cc(-c3ccc(NC(=O)C(C)NC(=O)OC(C)(C)C)cc3)ccc2N2CCN(C)CC2)c1Cl (centres undefined) | System = WD repeat-containing protein 5 (Homo sapiens) | pIC50 = ____
Outgoing: 7.11

Incoming: Form: Entry = Cc1c(F)c(N)cc(C(=O)Nc2cc(-c3ccc(NC(=O)CC(C)C)cc3)ccc2N2CCN(C)CC2)c1Cl | System = WD repeat-containing protein 5 (Homo sapiens) | pIC50 = ____
Outgoing: 6.98

Incoming: Form: Entry = Cc1c(F)c(N)cc(C(=O)Nc2cc(-c3ccc(NC(=O)CCCNC(=O)OC(C)(C)C)cc3)ccc2N2CCN(C)CC2)c1Cl | System = WD repeat-containing protein 5 (Homo sapiens) | pIC50 = ____
Outgoing: 7.09

Incoming: Form: Entry = COC(=O)c1ccc(-c2ccc(N3CCN(C)CC3)c(NC(=O)c3cc([N+](=O)[O-])c(F)c(C)c3Cl)c2)cc1 | System = WD repeat-containing protein 5 (Homo sapiens) | pIC50 = ____
Outgoing: 7.03

Incoming: Form: Entry = Cc1c(F)c(N)cc(C(=O)Nc2cc(-c3ccc(NC(=O)C(C)N)cc3)ccc2N2CCN(C)CC2)c1Cl (centres undefined) | System = WD repeat-containing protein 5 (Homo sapiens) | pIC50 = ____
Outgoing: 7.82

Incoming: Form: Entry = CCCC(=O)Nc1ccc(-c2ccc(N3CCN(C)CC3)c(NC(=O)c3cc(N)c(F)c(C)c3Cl)c2)cc1 | System = WD repeat-containing protein 5 (Homo sapiens) | pIC50 = ____
Outgoing: 7.12

====

Reported IC50 on WD repeat-containing protein 5 (Homo sapiens) for assorted compounds, compiled from publications.

Incoming: Form: Entry = COc1cccc(NC(=O)c2cc([N+](=O)[O-])ccc2N2CCN(C)CC2)c1 | System = WD repeat-containing protein 5 (Homo sapiens) | IC50 = ____
Outgoing: > 20 µM

Incoming: Form: Entry = CC(=O)Nc1cc(C(=O)Nc2cc(-c3ccc([N+](=O)[O-])cc3)ccc2N2CCN(C)CC2)c(Cl)c(C)c1F | System = WD repeat-containing protein 5 (Homo sapiens) | IC50 = ____
Outgoing: > 20 µM

Incoming: Form: Entry = Cc1c(F)ccc(C(=O)Nc2cc([N+](=O)[O-])ccc2N2CCN(c3ccccn3)CC2)c1Cl | System = WD repeat-containing protein 5 (Homo sapiens) | IC50 = ____
Outgoing: > 20 µM

Incoming: Form: Entry = Cc1c(F)ccc(C(=O)Nc2cc(C(=O)OC3CCCCC3)ccc2N2CCN(C)CC2)c1Cl | System = WD repeat-containing protein 5 (Homo sapiens) | IC50 = ____
Outgoing: > 20 µM

Incoming: Form: Entry = NCCCC[C@H](NC(=O)[C@H](Cc1c[nH]c2ccccc12)NC(=O)[C@H](CCC(N)=O)NC(=O)[C@H](CC(N)=O)NC(=O)[C@@H]1CCCN1C(=O)[C@@H](N)CS)C(=O)N[C@@H](CO)C(=O)N[C@@H](Cc1ccc(O)cc1)C(=O)N[C@@H](CS)C(=O)O | System = WD repeat-containing protein 5 (Homo sapiens) | IC50 = ____
Outgoing: > 100 µM

Incoming: Form: Entry = CN1CCN(c2ccc(C(=O)O)cc2NC(=O)c2ccc(F)c([N+](=O)[O-])c2)CC1 | System = WD repeat-containing protein 5 (Homo sapiens) | IC50 = ____
Outgoing: > 0.02 µM

Incoming: Form: Entry = CCC(CC)(NC(=O)C(C)C)C(=O)N[C@H](CCCNC(=N)N)C(=O)NC1(C(=O)NC(c2ccc(Cl)cc2)c2ccc(Cl)cc2)CCCC1 | System = WD repeat-containing protein 5 (Homo sapiens) | IC50 = ____
Outgoing: < 10 µM

Incoming: Form: Entry = CCNC(=O)[C@H](CCCNC(=N)N)NC(=O)C(CC)(CC)NC(=O)CC | System = WD repeat-containing protein 5 (Homo sapiens) | IC50 = ____
Outgoing: < 10 µM

Incoming: Form: Entry = COc1ccc(N2CCN(c3ccc([N+](=O)[O-])cc3NC(=O)c3ccc(F)c(C)c3Cl)CC2)cc1 | System = WD repeat-containing protein 5 (Homo sapiens) | IC50 = ____
Outgoing: > 20 µM
